# Species on record: Mus musculus
# assay.notes: In vitro anti-malarial activity in mice (Mus musculus) serum after 24 hr
# Assay type: functional, organism-based
pIC50: −log10 of the molar value.
property.measured: pIC50

## Task Return pIC50 (reported value) for this compound: CCCCCC1(OC)CCC(CC(=O)O)OO1 (stereo unspecified)
## Result < 5.92
